Biological target: rSARS2 RBD aa319-541, N439K, C-His (SARS-CoV-2, UniProt P0DTC2 319-541)
Test: flow cytometry, blocking of binding to hACE-2 cells
measurement_type: percent blocking (%)
Numeric answer only, unit % assumed.

Exercise: Record request: percent blocking value, item 1035755 (antibody, V domains shown) VH: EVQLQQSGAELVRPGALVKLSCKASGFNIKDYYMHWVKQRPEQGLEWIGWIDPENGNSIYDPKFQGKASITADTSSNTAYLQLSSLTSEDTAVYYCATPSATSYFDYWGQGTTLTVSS VL: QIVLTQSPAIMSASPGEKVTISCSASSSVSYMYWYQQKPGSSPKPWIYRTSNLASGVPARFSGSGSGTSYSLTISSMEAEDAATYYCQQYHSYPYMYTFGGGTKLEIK
Key: 25.2

Exercise: Fill in the blank: the reported percent blocking of 1035433 (antibody, V domains shown) VH: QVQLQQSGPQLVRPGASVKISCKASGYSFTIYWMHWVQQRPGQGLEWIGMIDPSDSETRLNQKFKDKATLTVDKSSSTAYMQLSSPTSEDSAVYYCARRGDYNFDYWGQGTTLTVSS VL: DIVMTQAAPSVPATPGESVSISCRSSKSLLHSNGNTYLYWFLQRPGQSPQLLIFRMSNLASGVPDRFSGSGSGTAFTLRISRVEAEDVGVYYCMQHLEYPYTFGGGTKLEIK is ____.
Key: 0.9
